Tested on: CD1 mice
Assay: Intestinotrophic activity assessment: small bowel weight in mice
Type: in vivo
Details: mice, as Example 4; relative to native rat GLP-2(1-33)
Description: Recipients were CD1 mice obtained from Charles River Laboratory (Ontario, Canada). The CD1 mice were aged-matched females at time of injection (n=3-4 per group), 6 weeks of age, unless otherwise specified. The animals were allowed a minimum of 24 hours to acclimatize to the laboratory facility before the initiation of each experiment. […] Mice were injected subcutaneously, twice a day (b.i.d.), with 2.5 μg peptide in a total volume of 0.5 cc of PBS and were monitored daily in the laboratory facility. […]
No end group written: not given here.
Labelling field: enter rule met if recorded % Activity (small bowel inducing activity relative to native rat GLP-2(1-33) = 100%) is less than 80%. Enter rule not met if it equals or exceeds that cut-off.

SUBSTANCE	CLASSIFICATION
H-HDDGSFSDEMNTILDNLAARDFINWLIQTKITD-OH [[Asp2]hGLP-2(1-33)]	rule not met
H-HGDGSFSDEMNTILDNLAARDFINWAIQTKITD-OH [[Gly2,Ala26]hGLP-2(1-33)]	rule met
H-HGDGAFSDEMNTILDNLAARDFINWLIQTKITD-OH [[Gly2,Ala5]hGLP-2(1-33)]	rule not met
H-HGDGSFSDEMNTILDALAARDFINWLIQTKITD-OH [[Gly2,Ala16]hGLP-2(1-33)]	rule not met
H-HADGTFSDEMNTILDNLAARDFINWLIQTKITD-OH [[Thr5]hGLP-2(1-33)]	rule met
H-HADGSFSDEMNTILDNLATRDFINW-OH [ratGLP-2(1-25)]	rule met
H-HGDASFSDEMNTILDNLAARDFINWLIQTKITD-OH [[Gly2,Ala4]hGLP-2(1-33)]	rule not met
H-HGDGSFSDEMNTILDNLAAADFINWLIQTKITD-OH [[Gly2,Ala20]hGLP-2(1-33)]	rule not met
HVDGSFSDEMNTILDNLATRDFINWLIQTKITD [[Val2]GLP-2(1-33)]	rule not met
H-HADGSFSDEMNTILDSRRARDFINWLIQTKITD-OH [[Ser16, Arg17, Arg18]hGLP-2(1-33)]	rule met
H-AGDGSFSDEMNTILDNLAARDFINWLIQTKITD-OH [[Ala1,Gly2]hGLP-2(1-33)]	rule met
H-HGDGSFSDEMNTILDNLAARAFINWLIQTKITD-OH [[Gly2,Ala21]hGLP-2(1-33)]	rule not met
H-HNDGSFSDEMNTILDNLAARDFINWLIQTKITD-OH [[Asn2]hGLP-2(1-33)]	rule met
